Tested on: CDK7
ASSAY_CONTEXT: concentration: 1 μM,replicates: in singlicate; n = 1;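 also: KINOMEscan kinase panel screen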
%Inh for assorted molecules
The reply should contain only the number, in %.

In [3]: df
Out[3]:
                         molecule  recorded_endpoint  numeric_readout
0  CCn1c(-c2nonc2N)nc2cncc(Br)c21               %Inh               48

Provide measured %Inh on CDK7 for `COC(=O)Nc1nc2cc(Oc3ccc(NC(=O)Nc4cc(C(F)(F)F)ccc4Cl)cc3)ccc2[nH]1.Cl` please. 89

Provide measured %Inh on CDK7 for `Cc1ccc2c(-c3ccnc(Nc4ccc(C(F)(F)F)cc4)n3)cnn2n1` please. 47

Provide measured %Inh on CDK7 for CS(=O)c1ccc(-c2coc3ccc(-c4n[nH]c(=O)o4)cc23)cc1 (centres unmarked) please. 38

Provide measured %Inh on CDK7 for `COc1cccc(OC)c1C(=O)Nc1cccc(-c2nn3ccccc3c2-c2ccnc(Nc3cccc(F)c3)n2)c1` please. 22

###

%Inh for assorted compounds
Test system: ROCK2
ASSAY_CONTEXT: concentration: 1 μM,replicates: in singlicate; n = 1
The reply should contain only the number, in %.

>>> print(df.to_string())
                                   compound  study_system  recorded_endpoint  numeric_readout
0  CCOC(=O)N1CCC(n2cnc(-c3ccc(F)cc3)c2-c2ccnc(N)n2)CC1         ROCK2               %Inh               12
1  COc1cccc(C2=C(Nc3cccc(Cl)c3)C(=O)NC2=O)c1         ROCK2               %Inh                0
2  CNC(=O)c1ccccc1Nc1nc(Nc2cccc(CS(C)(=O)=O)c2)ncc1C.O=CO         ROCK2               %Inh               75
3  OCCn1cc(-c2cnc3nnn(Cc4ccc5ncccc5c4)c3n2)cn1         ROCK2               %Inh                0
4  COc1cccc(OC)c1C(=O)Nc1cccc(-c2nn3ccccc3c2-c2ccnc(Nc3cccc(F)c3)n2)c1         ROCK2               %Inh               14

Give reported %Inh value for `COc1cc2c(Nc3ccc(NC(=O)c4ccccc4)cc3)ncnc2cc1OCCCN1CCOCC1` 0

Give reported %Inh value for COc1cc(Nc2nccc(N3CCC(NC(=O)c4cccc(C#N)c4)C3)n2)cc(OC)c1OC (centres unmarked) 35

Give reported %Inh value for `Cn1ccc2ncnc(Oc3ccc(NC(=O)Nc4cncc(C(F)(F)F)c4)c(Cl)c3)c21` 0

###

%Inh for assorted compounds
System: BMPR2
ASSAY_CONTEXT: concentration: 1 μM,replicates: in singlicate; n = 1
The reply should contain only the number, in %.

Answered cases to consult:
In [3]: df
Out[3]:
                                   compound  recorded_endpoint  numeric_readout
0  COc1cc(Nc2nccc(N3CCC(NC(=O)c4cccc(C#N)c4)C3)n2)cc(OC)c1OC (stereo not shown)               %Inh               11
1  CSc1nccc(-c2c(-c3ccc(F)cc3)ncn2CCCN2CCOCC2)n1.Cl               %Inh               39
2  Cc1nnc(-c2ccc3occ(-c4ccc(S(C)=O)cc4)c3n2)o1 (stereo not shown)               %Inh                0
3  O=c1[nH]cc(-c2ccc(O)cc2)c2sc(-c3ccncc3)cc12               %Inh               39
4           Cl.Nc1n[nH]c2cc(-c3ccccn3)ccc12               %Inh                0
5  COc1cc2c(Nc3ccc(NC(=O)c4ccccc4)cc3)ncnc2cc1OCCCN1CCOCC1               %Inh                0

Give reported %Inh value for `COC(=O)Nc1nc2cc(Oc3ccc(NC(=O)Nc4cc(C(F)(F)F)ccc4Cl)cc3)ccc2[nH]1.Cl` 21

Give reported %Inh value for `Cn1ccc2ncnc(Oc3ccc(NC(=O)Nc4cc(C(C)(C)C)on4)c(Cl)c3)c21` 5

Give reported %Inh value for `FC(F)(F)c1cc(Br)cc(Nc2nccc(-c3cnn4ncccc34)n2)c1` 0

Give reported %Inh value for `Cc1ccc(C(=O)Nc2ccc(Oc3ccc4nc(NC(=O)C5CC5)cn4c3)c(F)c2)c(=O)n1-c1ccccc1` 0

Give reported %Inh value for `CN1CCN(CCCNc2nccc(-c3c(-c4ccc(F)cc4)nn4cc(C(N)=O)ccc34)n2)CC1` 0

Give reported %Inh value for `c1ccc(Oc2ccc(Nc3ccnc4ccc(-c5ccccn5)cc34)cc2)cc1` 26

Give reported %Inh value for `Cc1n[nH]c2cc(Nc3ccnc(Nc4cccc(CN5CCOCC5)c4)n3)ccc12` 6

Give reported %Inh value for COc1ccc(Nc2nccc(N3CCC(NC(=O)c4cccc(C#N)c4)C3)n2)cc1 (stereo not shown) 0

Give reported %Inh value for `Nc1nccc(-c2ccc3c(N)n[nH]c3c2)n1` 0

Give reported %Inh value for `CC(=O)Nc1ccc(-c2cc3ncnc(SCC(=O)O)c3s2)cc1` 7

Give reported %Inh value for `CC(=O)Nc1nc2cnc(Nc3cc(NC(=O)c4cccc(CC(C)(C)C#N)c4)ccc3C)nc2s1` 0

Give reported %Inh value for `O=C(NOCC1CC1)c1cc(Br)c(F)c(F)c1Nc1ccc(I)cc1Cl` 0
